ASSAY_DETAILS: Stat Signaling Pathway (AID 446);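 further: ME-180 cervical cancer cells given 40 pM IL-6 alongside compound; SIE-controlled beta-lactamase reporter measured as 460/530 nm FRET emission ratio; on the % scale 0 is the no-effect control and ±100 the full control effect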
APPLIED_CONDITIONS: ME-180 SIE beta-lactamase reporter, IL-6 stimulated, 5 h; at 7.69 µM (top of the series) unless noted
Records with an inconclusive call do not appear.
READOUT_TYPE: activity, negative = inhibition (%)
Answer format: numeric, % implied, no suffix.

Notebook: Cc1noc(C)c1-c1cncnc1NC1CC1 , activity, negative = inhibition read as -18.4

Continuing:
Notebook: O=c1c(-c2ccc(Cl)cc2)nc2cnc(Nc3ccccc3)nc2n1C1CC1 , activity, negative = inhibition read as -0.41

Notebook: O=C(c1ccncc1)N1CCC[C@@]2(CCN(c3ccccc3)C2)C1 , activity, negative = inhibition read as 3.29

* * *

ASSAY_DETAILS: qHTS Assay for Lipid Storage Modulators (AID 1519)
APPLIED_CONDITIONS: Drosophila S3 cells, BODIPY lipid droplet/cell ratio, laser cytometry; measured here: lipid channel max response; cells loaded with oleic acid
Inconclusive results are not listed.
READOUT_TYPE: max response (%)
Answer format: numeric, % implied, no suffix.

Notebook: Cc1noc(C)c1C(=O)N1CCC2(CC1)CCN(c1ccncc1)CC2 , max response read as 12.2

Notebook: COC(=O)c1c(OC)cc2c(c1C)Oc1c(Cl)c(O)c(Cl)c(C)c1C(=O)O2 , max response read as -5.08

Notebook: O=C(c1ccco1)N1CCC[C@@]2(CCN(c3ccccn3)C2)C1 , max response read as 30

* * *

MEASUREMENT_TARGET: Dual specificity protein kinase CLK4 (Homo sapiens) (UniProt Q9HAZ1)
Sequence (Q9HAZ1 whole entry, looked up): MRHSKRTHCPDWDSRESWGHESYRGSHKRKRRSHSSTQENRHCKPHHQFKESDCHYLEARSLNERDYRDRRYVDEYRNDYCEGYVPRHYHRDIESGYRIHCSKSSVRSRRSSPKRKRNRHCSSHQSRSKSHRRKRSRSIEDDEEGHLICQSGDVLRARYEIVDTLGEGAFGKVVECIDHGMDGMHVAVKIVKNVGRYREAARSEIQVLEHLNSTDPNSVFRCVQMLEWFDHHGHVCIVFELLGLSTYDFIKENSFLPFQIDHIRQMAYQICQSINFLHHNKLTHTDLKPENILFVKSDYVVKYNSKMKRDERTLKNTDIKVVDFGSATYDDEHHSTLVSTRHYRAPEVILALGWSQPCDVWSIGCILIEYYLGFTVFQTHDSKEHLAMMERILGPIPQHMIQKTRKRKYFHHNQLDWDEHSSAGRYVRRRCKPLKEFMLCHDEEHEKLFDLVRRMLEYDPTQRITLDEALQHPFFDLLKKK
ASSAY_DETAILS: qHTS Assay for Inhibitors of CDC-like Kinase 4 (Kinase-Glo Assay) (AID 1770); further: nearly all actives have a fitted effect of over 65% in size
APPLIED_CONDITIONS: recombinant Clk4, Kinase-Glo ATP depletion luminescence; series mostly up to 66.7 µM
Inconclusive results are not listed. Active and inactive are the calls of the source. The call rests on the fitted dose curve; in most records, active means well fitted inhibition curve with a large enough effect; inconclusive means small, poorly fitted or top-dose-only effect; inactive means flat fitted curve, though single readings scatter.
Outcome field: choose from t = active, f = inactive

Example cases with answers are listed next.
Asked: Write down the call the test reported for this molecule. Item: O=c1c(-c2cccc(Cl)c2)nc2cncnc2n1Cc1ccccc1
Given back: f

Asked: Write down the call the test reported for this molecule. Item: COc1ncc2nc(-c3cn(C)c4ccccc34)c(=O)n(C)c2n1
Given back: f

Asked: Write down the call the test reported for this molecule. Item: CNc1nc(-c2ccccc2C)nc2ccccc12
Given back: t

Asked: Write down the call the test reported for this molecule. Item: COc1cccc(-c2nccc(NCc3ccccc3)n2)c1
Given back: t

Continuing:
Asked: Write down the call the test reported for this molecule. Item: COc1ccc(CNc2cc(-c3cccnc3)ncn2)c(OC)c1
Given back: t

Asked: Write down the call the test reported for this molecule. Item: COCCn1c(=O)c(-c2ccc(F)cc2)nc2cnc(N(C)C)nc21
Given back: f

Asked: Write down the call the test reported for this molecule. Item: CN1CCN(c2ncc3nc(-c4ccc(F)cc4)c(=O)n(C4CC4)c3n2)CC1
Given back: f

Asked: Write down the call the test reported for this molecule. Item: O=c1c(-c2cccc(Cl)c2)nc2cncnc2n1C1CC1
Given back: f

Asked: Write down the call the test reported for this molecule. Item: Clc1ccccc1-c1cc(NCc2ccccc2)ncn1
Given back: t

Asked: Write down the call the test reported for this molecule. Item: CNc1nc(-c2c(C)noc2C)nc2ccccc12
Given back: t

* * *

ASSAY_DETAILS: AP1 Signaling Pathway (AID 357);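 further: ME-180 reporter cells stimulated with EGF at its EC50 level; on the % scale 0 is the no-effect control and ±100 the full control effect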
APPLIED_CONDITIONS: ME-180 (cervical carcinoma) AP-1-bla reporter, EGF-induced, beta-lactamase ratio, 5 h; at 7.69 µM (top of the series) unless noted
Results filed as inconclusive are left out.
We begin with a simple list: items and their reported activity change, negative = inhibition.
Answer format: numeric, % implied, no suffix.

Known activity change, negative = inhibition results, listed for orientation:
Notebook: O=C(c1ccncc1)N1CCC[C@@]2(CCN(Cc3cc(C(F)(F)F)cc(C(F)(F)F)c3)C2)C1 , activity change, negative = inhibition read as 8.67

Notebook: FC(F)(F)c1ccccc1-c1cncnc1NCCc1cnc[nH]1 , activity change, negative = inhibition read as -1.69

Notebook: CN(C)c1ncc2nc(-c3ccccc3)c(=O)n(CCC#N)c2n1 , activity change, negative = inhibition read as -4.57

Continuing:
Notebook: O=C(c1ccncc1)N1CCC2(CCCN(c3ccc(-c4ccccc4)cc3)C2)CC1 , activity change, negative = inhibition read as -6.85

Notebook: O=c1c(-c2cccc(F)c2)nc2cncnc2n1C1CC1 , activity change, negative = inhibition read as -9.05
